Test system: NCI-H226
Assay: NCI tumour cell line growth inhibition, 48 h
Calls of active or inactive are those of the source. Rule as the data show it: active = GI50 up to about 1.1 µM and inactive = higher.
Respond with a class label; see active, inactive

Below, 8 molecules whose answers are already recorded.
Request: GET /call?item= COC(=O)c1c(O)ccc2c1c1c(n2Cc2ccc(OC)cc2)C(=O)c2ccccc2C1=O returns the recorded outcome of this test.
Result: inactive

Request: GET /call?item= Cc1nnc2sc(-c3ccc(-c4ccccc4Cl)o3)nn12 returns the recorded outcome of this test.
Result: inactive

Request: GET /call?item= COC(=O)C(NC(=O)c1ccccc1)C(c1c(O)cc(O)cc1O)P(=O)(OC)OC (stereo not drawn) returns the recorded outcome of this test.
Result: inactive

Request: GET /call?item= CN(/N=C/C=N/N(C)C1=NCCN1)C1=NCCN1 returns the recorded outcome of this test.
Result: inactive

Request: GET /call?item= CN(C)C(=S)S [SODIUM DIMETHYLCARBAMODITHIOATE] returns the recorded outcome of this test.
Result: inactive

Request: GET /call?item= O=C1CCSc2nc(-c3ccc4c(c3)OCO4)nn21 returns the recorded outcome of this test.
Result: inactive

Request: GET /call?item= Clc1ncc(Cl)c(Cl)n1 returns the recorded outcome of this test.
Result: inactive

Request: GET /call?item= O=c1[nH]c2nc3ccccc3c(=O)n2/c1=C/c1ccccc1 returns the recorded outcome of this test.
Result: inactive

New cases:
Request: GET /call?item= CC(=O)C1=C(O)C2C3c4c[nH]c5cccc(c45)CC3C(C)(C)N2C1=O (stereo not drawn) returns the recorded outcome of this test.
Result: inactive

----------
Test system: MCF7
Assay: NCI tumour cell line growth inhibition, 48 h
Activity calls are given as the source filed them. Rule as the data show it: active = GI50 up to about 1.1 µM and inactive = higher.
Respond with a class label; see active, inactive

Request: GET /call?item= COc1ccc(N(C(=O)Nc2ccc(Cl)c(Cl)c2)C2c3cccn3C(=O)N2c2ccc(Cl)c(Cl)c2)cc1 (centres undefined) returns the recorded outcome of this test.
Result: inactive

Request: GET /call?item= CCc1c(-c2ccc(OC)cc2)c(=O)oc2cc(O)ccc12 returns the recorded outcome of this test.
Result: inactive

----------
Test system: Hs-578T
Assay: NCI tumour cell line growth inhibition, 48 h
Calls of active or inactive are those of the source. No stated cut-off is given here; in the data, active = GI50 up to about 1.1 µM and inactive = higher.
Respond with a class label; see active, inactive

Below, 5 compounds whose answers are already recorded.
Request: GET /call?item= CC(C)(C)N/N=C(\C(=O)Nc1ccc([N+](=O)[O-])cc1[N+](=O)[O-])c1nc2ccc([N+](=O)[O-])cc2nc1O returns the recorded outcome of this test.
Result: inactive

Request: GET /call?item= O=C1Cc2c(-c3ccccc3)cc(-c3ccc4ccccc4c3)nc2-c2ccccc2N1 returns the recorded outcome of this test.
Result: inactive

Request: GET /call?item= CCOC(=O)c1nc2cc(F)c(F)cc2nc1NCc1cc(OC)c(OC)c(OC)c1 returns the recorded outcome of this test.
Result: inactive

Request: GET /call?item= Nc1nc(=S)n(-c2ccc(Cl)cc2)c2nc3ccccc3cc12 returns the recorded outcome of this test.
Result: inactive

Request: GET /call?item= O=C(O)c1ccccc1C1CCCc2c1[nH]c1ccccc21 (centres undefined) returns the recorded outcome of this test.
Result: inactive

New cases:
Request: GET /call?item= COc1cc2c(cc1OCCCOc1cc3c(cc1OC)C(=O)N1CCC[C@H]1CN3)N=C[C@@H]1CCCN1C2=O returns the recorded outcome of this test.
Result: active

Request: GET /call?item= O=C(O)c1cc2c(cc1S(=O)(=O)O)C1C(C3C2C2(Cl)C(Cl)=C(Cl)C3(Cl)C2(Cl)Cl)C2(Cl)C(Cl)=C(Cl)C1(Cl)C2(Cl)Cl (centres undefined) returns the recorded outcome of this test.
Result: inactive

Request: GET /call?item= C=C1C[C@@H]2O[C@H]3[C@H]4[C@@H](C[C@@H](C)[C@@H](OC(C)=O)[C@H]42)[C@@H](C)CO[C@@]3(C)[C@H](OC(C)=O)C[C@H]1O returns the recorded outcome of this test.
Result: inactive

Request: GET /call?item= Cc1nc2c(-c3ccccc3)[nH]c(C)c2c(=O)o1 returns the recorded outcome of this test.
Result: inactive

Request: GET /call?item= Cn1c(=O)c2c(nc3sc4ccccc4c(=O)n32)n(C)c1=O returns the recorded outcome of this test.
Result: inactive

Request: GET /call?item= CCCCCCCCCc1cc(=O)c2c(O)cc(O)cc2o1 returns the recorded outcome of this test.
Result: inactive

Request: GET /call?item= CC(/C=N/N=C1NCCCCN1)=N\N=C1NCCCCN1 returns the recorded outcome of this test.
Result: inactive

----------
Tested on: CAKI-1
Experiment: NCI tumour cell line growth inhibition, 48 h
Activity calls are given as the source filed them. No stated cut-off is given here; in the data, active = GI50 up to about 1.1 µM and inactive = higher.
Respond with a class label; see active, inactive

Request: GET /call?item= COC(=O)NC1(NC(=O)OC)NC(=O)c2cc(OC)c(OC)cc2N1 returns the recorded outcome of this test.
Result: inactive

Request: GET /call?item= C[C@@]12[Se]c3ccccc3[C@]1(C)[Se]c1ccccc12 returns the recorded outcome of this test.
Result: inactive

New cases:
Request: GET /call?item= CCCCCCCCCCCCCCCCCC(CCCCCCCCCCCCCCCCC)OP(=O)(O)O returns the recorded outcome of this test.
Result: inactive

Request: GET /call?item= CC(C)(C)OC(=O)NC1CC2(C=C(Br)C(=O)C(Br)=C2)OC1=O (stereo unspecified) returns the recorded outcome of this test.
Result: inactive

Request: GET /call?item= COc1cc(C(C)c2cc3c(cc2OCCN)OCO3)cc(OC)c1OC (stereo unspecified) returns the recorded outcome of this test.
Result: inactive

Request: GET /call?item= C/C=C/C(O)P(=O)(OC)OC (stereo unspecified) returns the recorded outcome of this test.
Result: active

----------
System: SK-OV-3
Test: NCI tumour cell line growth inhibition, 48 h
Activity calls are given as the source filed them. No stated cut-off is given here; in the data, active = GI50 up to about 1.1 µM and inactive = higher.
Respond with a class label; see T (active), F (inactive)

Below, 2 compounds whose answers are already recorded.
Request: GET /call?item= C/C=C/C(O)P(=O)(OC)OC (stereo not given) returns the recorded outcome of this test.
Result: T

Request: GET /call?item= COc1ccc(C(=O)O/N=C2\CCCC\C2=C/c2ccccc2)cc1 returns the recorded outcome of this test.
Result: F

New cases:
Request: GET /call?item= C=C1C[C@@H]2O[C@H]3[C@H]4[C@@H](C[C@@H](C)[C@@H](OC(C)=O)[C@H]42)[C@@H](C)CO[C@@]3(C)[C@H](OC(C)=O)C[C@H]1O returns the recorded outcome of this test.
Result: F

Request: GET /call?item= CCOC(=O)C#Cc1cccc(C#CC(=O)OCC)c1 returns the recorded outcome of this test.
Result: F

Request: GET /call?item= CN1C(=O)N/C(=C\c2ccc(S(=O)(=O)N/N=C\C(O)C(O)C(O)CO)cc2)C1=O (stereo not given) returns the recorded outcome of this test.
Result: F

Request: GET /call?item= OCCSCC/C(=N\N=C(/CCSCCO)c1ccccc1)c1ccccc1 returns the recorded outcome of this test.
Result: F

Request: GET /call?item= O=C(NCP(=O)(Oc1ccccc1)Oc1ccccc1)OCc1ccccc1 returns the recorded outcome of this test.
Result: F

Request: GET /call?item= O=C(O)C1CCC(=O)N1C(=O)C(Cl)c1ccccc1 (stereo not given) returns the recorded outcome of this test.
Result: F

Request: GET /call?item= O=C1Nc2ccccc2/C1=N\c1cccc2ncccc12 returns the recorded outcome of this test.
Result: F

Request: GET /call?item= Cc1cc(C)nc(NS(=O)(=O)c2ccc(Nc3c4ccccc4nc4c(C(=O)NNCCO)cccc34)cc2)n1 returns the recorded outcome of this test.
Result: F

----------
Tested on: BT-549
Test: NCI tumour cell line growth inhibition, 48 h
Active and inactive are the calls of the source. Rule as the data show it: active = GI50 up to about 1.1 µM and inactive = higher.
Respond with a class label; see class 1 (active), class 0 (inactive)

Below, 8 compounds whose answers are already recorded.
Request: GET /call?item= COC(=O)C(=O)c1c2ccccc2n2ccc3c4ccccc4[nH]c3c12 returns the recorded outcome of this test.
Result: class 0

Request: GET /call?item= CNC1=Nc2ccccc2C(=O)N2CSCC12 (stereo unspecified) returns the recorded outcome of this test.
Result: class 0

Request: GET /call?item= O=C1Nc2ccccc2/C1=N\c1cccc2ncccc12 returns the recorded outcome of this test.
Result: class 0

Request: GET /call?item= O=[N+]([O-])c1ccc2c3c1[C@H]1O[C@H]1c1cccc(c1-3)[C@@H]1O[C@H]21 returns the recorded outcome of this test.
Result: class 0

Request: GET /call?item= CC1=C(C(=O)NNC(=O)Cc2ccccc2)CC(C(=O)NNC(=O)Cc2ccccc2)=C(C)N1 returns the recorded outcome of this test.
Result: class 0

Request: GET /call?item= COC(=O)c1ccc(/N=N/N(C)COc2ccc(C#N)cc2)cc1 returns the recorded outcome of this test.
Result: class 0

Request: GET /call?item= OCCCSCCO returns the recorded outcome of this test.
Result: class 0

Request: GET /call?item= O=C(O)c1ccccc1C1CCCc2c1[nH]c1ccccc21 (stereo unspecified) returns the recorded outcome of this test.
Result: class 0

New cases:
Request: GET /call?item= O=C(O)Cc1c(O)ccc2ccccc12 returns the recorded outcome of this test.
Result: class 0

Request: GET /call?item= CC(C)(C)OC(=O)NC1CC2(C=C(Br)C(=O)C(Br)=C2)OC1=O (stereo unspecified) returns the recorded outcome of this test.
Result: class 0

Request: GET /call?item= Cc1c(-c2ccccc2)oc(=O)c2ccccc12 returns the recorded outcome of this test.
Result: class 0

Request: GET /call?item= Cc1nc2c(-c3ccccc3)[nH]c(C)c2c(=O)o1 returns the recorded outcome of this test.
Result: class 0

Request: GET /call?item= CC(C)(C)[Si](C)(C)OCCC1CC2(S(=O)(=O)C3=CC=C=C=C3)ON1CC2S(=O)(=O)c1ccccc1 (stereo unspecified) returns the recorded outcome of this test.
Result: class 0

Request: GET /call?item= Cc1ccc(N/C(=C(/C(Cl)=C(Cl)Cl)[N+](=O)[O-])n2nnc3ccccc32)cc1 returns the recorded outcome of this test.
Result: class 0
